- System: pinch skin graft from male BAB/c donors transplanted to male C3 H(H-2K) recipients
- assay.comment: survival time of a pinch skin graft
- Assay type: in vivo, male C3 H(H-2K) recipients (mouse strain)
- condition.context: dose of 4 mg/kg, intraperitoneally or orally; untreated control usually rejected within 6-7 days
- Description: Immunosuppressive activity for representative compounds of this invention was evaluated in an in vitro standard pharmacological test procedure to measure lymphocyte proliferation (LAF) and in an in vivo standard pharmacological test procedure which evaluated the survival time of a pinch skin graft. […]
List of Skin Graft mean survival time (days ± SD) values.
measurement.kind: Skin Graft mean survival time (days ± SD) (days)

1) CO[C@H]1C[C@@H]2CC[C@@H](C)[C@@](O)(O2)C(=O)C(=O)N2CCCC[C@H]2C(=O)O[C@H]([C@H](C)C[C@@H]2CC[C@@H](OS(=O)(=O)O)[C@H](OC)C2)CC(=NO)[C@H](C)/C=C(\C)[C@@H](O)[C@@H](OC)C(=O)[C@H](C)C[C@H](C)/C=C/C=C/C=C/1C [Example 6]    9.8
2) CO[C@H]1C[C@@H]2CC[C@@H](C)[C@@](O)(O2)C(=O)C(=O)N2CCCC[C@H]2C(=O)O[C@H]([C@H](C)C[C@@H]2CC[C@@H](O)[C@H](OC)C2)CC(=O)[C@H](C)/C=C(\C)[C@@H](O)[C@@H](OC)C(=O)[C@H](C)C[C@H](C)/C=C/C=C/C=C/1C [rapamycin]    12.0
3) CO[C@H]1C[C@@H]2CC[C@@H](C)[C@@](O)(O2)C(=O)C(=O)N2CCCC[C@H]2C(=O)O[C@H]([C@H](C)C[C@@H]2CC[C@@H](OC(=O)NCCc3ccccn3)[C@H](OC)C2)CC(=NO)[C@H](C)/C=C(\C)[C@@H](O)[C@@H](OC)C(=O)[C@H](C)C[C@H](C)/C=C/C=C/C=C/1C [Example 2]    8.0
4) CCOC(C)O[C@@H]1CC[C@@H](C[C@@H](C)[C@@H]2C/C(=N\OC)[C@H](C)/C=C(\C)[C@@H](O)[C@@H](OC)C(=O)[C@H](C)C[C@H](C)/C=C/C=C/C=C(\C)[C@@H](OC)C[C@@H]3CC[C@@H](C)[C@@](O)(O3)C(=O)C(=O)N3CCCC[C@H]3C(=O)O2)C[C@H]1OC (some centres unmarked) [Example 17]    7.8
5) CO[C@H]1C[C@@H]2CC[C@@H](C)[C@@](O)(O2)C(=O)C(=O)N2CCCC[C@H]2C(=O)O[C@H]([C@H](C)C[C@@H]2CC[C@@H](OC(N)=O)[C@H](OC)C2)CC(=NO)[C@H](C)/C=C(\C)[C@@H](O)[C@@H](OC)C(=O)[C@H](C)C[C@H](C)/C=C/C=C/C=C/1C [Example 8]    7.0
